Kindly supply the reported IC50 values for the records listed here.
# Organism: Bos taurus
# Test: Inhibition of NADH-ubiquinone oxidoreductase using decylubiquinone (DB) acceptor
# Assay type: functional
// return numeric value only (unit: nM, not printed)

The molecule identified as CCCCCCCCCC[C@H](O)[C@H]1CC[C@@H]([C@@H]2CC[C@H]([C@H](O)CCCCCCCCCC[C@@H](O)CC3=C[C@H](C)OC3=O)O2)O1 registered its IC50 at 0.74

The molecule identified as CCCCCCCCCC[C@@H](O)[C@@H]1CC[C@@H]([C@@H](O)CC[C@H](O)[C@@H]2CC[C@@H](CCCCCCC[C@H]3CC(CC(C)=O)C(=O)O3)O2)O1 (stereo not given in full) registered its IC50 at 2.88

The molecule identified as CCCCCCCCCC[C@H](O)[C@H]1CC[C@H]([C@H]2CC[C@H]([C@H](O)CCCCCCCCCCCCC3C(=O)O[C@@H](C)[C@@H]3O)O2)O1 (stereo not given in full) registered its IC50 at 0.29

The molecule identified as CCCCCCCCCC[C@@H](O)[C@@H]1CC[C@@H]([C@@H](O)CC[C@H](O)[C@@H]2CC[C@@H](CCCCCCC[C@H]3CC(C/C(C)=N/O)C(=O)O3)O2)O1 (stereo not given in full) registered its IC50 at 1.42

The molecule identified as CCCCCCCCCC[C@H](O)[C@H]1CC[C@@H]([C@@H]2CC[C@H]([C@H](O)CCCCCCCCCC[C@@H](O)CC3C[C@H](C)OC3=O)O2)O1 (stereo not given in full) registered its IC50 at 0.57

====

# Organism: Bos taurus
# Test: Inhibition of NADH-ubiquinone oxidoreductase using decylubiquinone (DB) acceptor
# Format: functional
Kindly supply the reported pIC50 values for the records listed here.
// pIC50: -log10(molar conc.)

The compound identified as CCCCCCCCCC[C@H](O)[C@H]1CC[C@@H]([C@@H]2CC[C@H]([C@H](O)CCCCCCCCCC[C@H]3CC(CC(C)O)C(=O)O3)O2)O1 (stereo partly drawn) registered its pIC50 at 9.68

The compound identified as CCCCCCCCCC[C@H](O)[C@H]1CC[C@H]([C@H]2CC[C@H]([C@H](O)CCCCCCCCCCC3C(=O)O[C@@H](C)[C@@H]3O)O2)O1 (stereo partly drawn) registered its pIC50 at 9.14

The compound identified as CCCCCCCCCC[C@H](O)[C@H]1CC[C@@H]([C@@H]2CC[C@H]([C@H](O)CCCCCCCCCC[C@@H](O)CC3(O)C(=O)O[C@@H](C)[C@H]3O)O2)O1 (single isomer, unassigned) registered its pIC50 at 9.25

====

# Species on record: Bos taurus
# Test: Inhibition of NADH-ubiquinone oxidoreductase using decylubiquinone (DB) acceptor
# Format: functional
Reported Endpoint: pIC50
// pIC50: -log10(molar conc.)

The compound identified as CCCCCCCCCC[C@@H](O)[C@@H]1CC[C@@H]([C@@H](O)CC[C@H](O)[C@@H]2CC[C@@H](CCCCCCC[C@@H](O)CC3(O)C(=O)O[C@H](C)[C@H]3O)O2)O1 (single isomer, unassigned) registered its pIC50 at 7.42

The compound identified as CCCCCCCCCC[C@H](O)[C@H]1CC[C@@H]([C@@H]2CC[C@H]([C@H](O)CCCCCCCCCC[C@H]3CC(CC(C)=O)C(=O)O3)O2)O1 (stereo partly specified) registered its pIC50 at 8.92

The compound identified as CCCCCCCCCC[C@@H](O)[C@@H]1CC[C@@H]([C@@H](O)CC[C@H](O)[C@@H]2CC[C@@H](CCCCCCC[C@@H](O)CC3=C[C@H](C)OC3=O)O2)O1 registered its pIC50 at 8.29

The compound identified as CCCCCCCCCC[C@@H](O)[C@@H]1CC[C@@H]([C@@H](O)CC[C@H](O)[C@@H]2CC[C@@H](CCCCCCC[C@H]3CC(CC(C)O)C(=O)O3)O2)O1 (stereo partly specified) registered its pIC50 at 8.33

The compound identified as CCCCCCCCCC[C@@H](O)[C@@H]1CC[C@@H]([C@@H](O)CC[C@H](O)[C@@H]2CC[C@@H](CCCCCCC[C@@H](O)CC3C[C@H](C)OC3=O)O2)O1 (stereo partly specified) registered its pIC50 at 8.48

The compound identified as CCCCCCCCCC[C@H](O)[C@H]1CC[C@@H]([C@@H]2CC[C@H]([C@H](O)CCCCCCCCCC[C@H]3CC(C/C(C)=N/O)C(=O)O3)O2)O1 (stereo partly specified) registered its pIC50 at 9.66

====

# Test System: Mitochondrial complex I; NADH oxidoreductase (Bos taurus, UniProt P25708+P52505)
# Sequence (P25708 21-464 limits assumed, other chains not shown): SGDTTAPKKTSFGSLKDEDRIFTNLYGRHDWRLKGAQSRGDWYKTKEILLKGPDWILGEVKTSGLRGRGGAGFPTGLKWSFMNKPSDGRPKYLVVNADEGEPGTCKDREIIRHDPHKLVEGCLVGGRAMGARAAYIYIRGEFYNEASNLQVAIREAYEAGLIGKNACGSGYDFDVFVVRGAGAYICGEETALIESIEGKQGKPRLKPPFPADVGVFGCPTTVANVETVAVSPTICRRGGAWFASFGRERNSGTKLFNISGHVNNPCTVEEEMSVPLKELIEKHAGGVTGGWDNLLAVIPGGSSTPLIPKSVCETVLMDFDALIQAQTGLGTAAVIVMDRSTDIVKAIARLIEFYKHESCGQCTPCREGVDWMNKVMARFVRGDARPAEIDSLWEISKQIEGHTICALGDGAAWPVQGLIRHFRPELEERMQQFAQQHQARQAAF
# Test: Inhibition of NADH oxidase activity in sub-mitochondrial particles from bovine heart
# Assay type: functional
Reported Endpoint: pIC50
// pIC50: -log10(molar conc.)

The molecule identified as CCCCCCCCCC[C@@H](O)[C@@H]1CC[C@@H]([C@@H](O)CC[C@H](O)[C@@H]2CC[C@@H](CCCCCCC[C@@H](O)CC3=C[C@H](C)OC3=O)O2)O1 registered its pIC50 at 8.74

The molecule identified as CCCCCCCCCC[C@@H](O)[C@@H]1CC[C@@H]([C@@H](O)CC[C@H](O)[C@@H]2CC[C@@H](CCCCCCC[C@H]3CC(CC(C)=O)C(=O)O3)O2)O1 (stereo partly drawn) registered its pIC50 at 9.08

The molecule identified as CCCCCCCCCC[C@@H](O)[C@@H]1CC[C@@H]([C@@H](O)CC[C@H](O)[C@@H]2CC[C@@H](CCCCCCC[C@@H](O)CC3C[C@H](C)OC3=O)O2)O1 (stereo partly drawn) registered its pIC50 at 8.91

The molecule identified as CCCCCCCCCC[C@H](O)[C@H]1CC[C@@H]([C@@H]2CC[C@H]([C@H](O)CCCCCCCCCC[C@H]3CC(CC(C)=O)C(=O)O3)O2)O1 (stereo partly drawn) registered its pIC50 at 9.48

The molecule identified as CCCCCCCCCC[C@H](O)[C@H]1CC[C@@H]([C@@H]2CC[C@H]([C@H](O)CCCCCCCCCC[C@H]3CC(C/C(C)=N/O)C(=O)O3)O2)O1 (stereo partly drawn) registered its pIC50 at 9.64

The molecule identified as CCCCCCCCCC[C@H](O)[C@H]1CC[C@H]([C@H]2CC[C@H]([C@H](O)CCCCCCCCCCCCC3C(=O)O[C@@H](C)[C@@H]3O)O2)O1 (stereo partly drawn) [LAHERRADURIN] registered its pIC50 at 9.74

The molecule identified as CCCCCCCCCC[C@H](O)[C@H]1CC[C@H]([C@H]2CC[C@H]([C@H](O)CCCCCCCCCCC3C(=O)O[C@@H](C)[C@@H]3O)O2)O1 (stereo partly drawn) registered its pIC50 at 9.68

The molecule identified as CCCCCCCCCC[C@@H](O)[C@@H]1CC[C@@H]([C@@H](O)CC[C@H](O)[C@@H]2CC[C@@H](CCCCCCC[C@H]3CC(C/C(C)=N/O)C(=O)O3)O2)O1 (stereo partly drawn) registered its pIC50 at 9.27

The molecule identified as CCCCCCCCCC[C@@H](O)[C@@H]1CC[C@@H]([C@@H](O)CC[C@H](O)[C@@H]2CC[C@@H](CCCCCCC[C@H]3CC(CC(C)O)C(=O)O3)O2)O1 (stereo partly drawn) registered its pIC50 at 8.61

The molecule identified as CCCCCCCCCC[C@H](O)[C@H]1CC[C@@H]([C@@H]2CC[C@H]([C@H](O)CCCCCCCCCC[C@@H](O)CC3(O)C(=O)O[C@@H](C)[C@H]3O)O2)O1 (single isomer, unassigned) registered its pIC50 at 9.68

The molecule identified as CCCCCCCCCC[C@H](O)[C@H]1CC[C@@H]([C@@H]2CC[C@H]([C@H](O)CCCCCCCCCC[C@H]3CC(CC(C)O)C(=O)O3)O2)O1 (stereo partly drawn) registered its pIC50 at 9.74

The molecule identified as CCCCCCCCCC[C@@H](O)[C@@H]1CC[C@@H]([C@@H](O)CC[C@H](O)[C@@H]2CC[C@@H](CCCCCCC[C@@H](O)CC3(O)C(=O)O[C@H](C)[C@H]3O)O2)O1 (single isomer, unassigned) registered its pIC50 at 8.07

The molecule identified as CCCCCCCCCC[C@H](O)[C@H]1CC[C@@H]([C@@H]2CC[C@H]([C@H](O)CCCCCCCCCC[C@@H](O)CC3C[C@H](C)OC3=O)O2)O1 (stereo partly drawn) registered its pIC50 at 9.37
